Test: Partition coefficient determination in octanol/water (k)
Type: physicochemical
Conditions: octan-1-ol/water, 50 μM sample, UHPLC-MS; SD <0.01
parameter-measured: Partition coefficient (k)

C[C@@H]1O[C@@H](O[C@H]2[C@H](Oc3cc(O)c4c(c3)O[C@H](c3ccc(O)cc3)CC4=O)O[C@H](CO)[C@@H](O)[C@@H]2O)[C@H](O)[C@H](O)[C@H]1O: 0.37
COc1ccc([C@@H]2CC(=O)c3c(O)cc(O[C@@H]4O[C@H](CO[C@@H]5O[C@@H](C)[C@H](O)[C@@H](O)[C@H]5O)[C@@H](O)[C@H](O)[C@H]4O)cc3O2)cc1O: 0.42

P: C[C@@H]1O[C@@H](OC[C@H]2O[C@@H](Oc3c(-c4ccc(O)c(O)c4)oc4cc(O)cc(O)c4c3=O)[C@H](O)[C@@H](O)[C@@H]2O)[C@H](O)[C@H](O)[C@H]1O
Q: O=c1c(O)c(-c2ccc(O)c(O)c2)oc2cc(O)cc(O)c12
Input: Hi! Which is lower in terms of Partition coefficient (k), the first one P or the second one Q ? Answer by quoting the chosen item's label.
Output: P
(P: 0.48, Q: 1.46)

###

Target: xanthine oxidase from bovine milk (Bos taurus, UniProt P80457)
Sequence (P80457 whole entry): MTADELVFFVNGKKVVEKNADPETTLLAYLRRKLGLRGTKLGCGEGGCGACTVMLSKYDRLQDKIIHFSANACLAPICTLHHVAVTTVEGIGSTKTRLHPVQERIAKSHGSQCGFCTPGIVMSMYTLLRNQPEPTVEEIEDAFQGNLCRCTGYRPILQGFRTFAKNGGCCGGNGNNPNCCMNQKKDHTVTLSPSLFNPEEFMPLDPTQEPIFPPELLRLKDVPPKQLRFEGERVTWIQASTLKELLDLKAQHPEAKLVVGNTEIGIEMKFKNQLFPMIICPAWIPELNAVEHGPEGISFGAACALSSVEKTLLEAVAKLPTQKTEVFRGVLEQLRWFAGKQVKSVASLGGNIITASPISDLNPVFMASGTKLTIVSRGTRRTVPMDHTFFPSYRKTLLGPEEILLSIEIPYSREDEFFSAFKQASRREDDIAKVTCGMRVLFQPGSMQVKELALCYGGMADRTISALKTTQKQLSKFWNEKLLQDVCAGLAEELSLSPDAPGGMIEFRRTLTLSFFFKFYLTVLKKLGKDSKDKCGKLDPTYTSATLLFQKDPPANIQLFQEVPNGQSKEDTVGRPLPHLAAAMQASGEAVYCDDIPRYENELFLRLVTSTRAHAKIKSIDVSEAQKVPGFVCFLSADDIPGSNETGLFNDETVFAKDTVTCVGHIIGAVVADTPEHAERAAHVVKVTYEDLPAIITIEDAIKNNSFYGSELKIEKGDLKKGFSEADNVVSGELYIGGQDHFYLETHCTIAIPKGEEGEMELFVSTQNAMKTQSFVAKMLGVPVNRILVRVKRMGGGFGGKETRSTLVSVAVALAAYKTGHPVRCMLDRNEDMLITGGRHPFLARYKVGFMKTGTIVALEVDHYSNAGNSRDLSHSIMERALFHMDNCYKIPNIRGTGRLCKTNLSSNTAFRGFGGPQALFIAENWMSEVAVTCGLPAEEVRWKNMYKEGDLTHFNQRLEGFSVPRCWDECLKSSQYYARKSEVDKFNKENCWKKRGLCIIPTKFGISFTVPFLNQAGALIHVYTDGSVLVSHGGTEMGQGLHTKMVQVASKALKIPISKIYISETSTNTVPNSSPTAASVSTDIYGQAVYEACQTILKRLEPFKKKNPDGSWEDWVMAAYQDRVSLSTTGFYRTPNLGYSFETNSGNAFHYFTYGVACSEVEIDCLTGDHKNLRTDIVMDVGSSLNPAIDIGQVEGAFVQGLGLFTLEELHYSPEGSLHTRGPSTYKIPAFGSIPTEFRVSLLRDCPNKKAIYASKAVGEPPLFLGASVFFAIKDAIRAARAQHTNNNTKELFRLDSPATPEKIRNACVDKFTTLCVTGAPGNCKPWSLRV
parameter-measured: pIC50
Please report pIC50 as the negative decimal logarithm of the molar concentration, giving only the number.

COc1ccc([C@@H]2CC(=O)c3c(O)cc(O[C@@H]4O[C@H](CO[C@@H]5O[C@@H](C)[C@H](O)[C@@H](O)[C@H]5O)[C@@H](O)[C@H](O)[C@H]4O)cc3O2)cc1O: 3.48

Let us examine a further case.
Input: Query pIC50 for C[C@@H]1O[C@@H](O[C@H]2[C@H](Oc3cc(O)c4c(c3)O[C@H](c3ccc(O)cc3)CC4=O)O[C@H](CO)[C@@H](O)[C@@H]2O)[C@H](O)[C@H](O)[C@H]1O
Output: 3.69
